Test: qHTS Screen of the MIPE 4.0 Collection Against Ewings Sarcoma (RDES) (AID 1259252); further: nearly all actives have a fitted effect of over 35% in size
Conditions: RD-ES Ewing sarcoma viability, CellTiter-Glo, 48 h; series mostly up to 45.8 µM
Records with an inconclusive call do not appear. Active and inactive are the calls of the source. The call rests on the fitted dose curve; in most records, active means well fitted inhibition curve with a large enough effect; inconclusive means small, poorly fitted or top-dose-only effect; inactive means no such curve, though single readings can be large or run the other way.
Response enum: y for active, n for inactive

Some solved entries appear below for comparison.
smilesEntry	answerLabel
c1cncc(CN2CCC(n3ncc4c(N5CCOCC5)nc(-c5ccc6[nH]ccc6c5)nc43)CC2)c1	y
O=C1c2c(O)cccc2[C@@H]([C@@H]2O[C@H](CO)[C@@H](O)[C@H](O)[C@H]2O)c2cc(CO)cc(O)c21	n
CCOC(=O)N1CCN([N+]([O-])=NOc2ccc([N+](=O)[O-])cc2C#N)CC1	y

input: Dear colleague, could you share the recorded outcome for `CN[C@H](CC(C)C)C(=O)N[C@H]1C(=O)N[C@@H](CC(N)=O)C(=O)N[C@@H]2C(=O)N[C@H]3C(=O)N[C@H](C(=O)N[C@H](C(=O)O)c4cc(O)cc(O)c4-c4cc3ccc4O)[C@H](O)c3ccc(c(Cl)c3)Oc3cc2cc(c3O[C@@H]2O[C@H](CO)[C@@H](O)[C@H](O)[C@@H]2O[C@H]2C[C@](C)(N)[C@H](O)[C@H](C)O2)Oc2ccc(cc2Cl)[C@H]1O` when you have a moment?
output: n

input: Now this one: `CC(=O)N[C@H]1[C@@H]([C@H](O)[C@H](O)CO)OC(C(=O)O)=C[C@@H]1N=C(N)N`
output: n

input: Then what about the compound `COc1cc(C(=O)NC2CCN(C)CC2)ccc1Nc1ncc2c(n1)N(C1CCCC1)CCC(=O)N2C(C)C` ?
output: y

input: Do the same for `CCCCC(=O)O[C@]1(C(=O)CO)[C@@H](C)C[C@H]2[C@@H]3CCC4=CC(=O)C=C[C@]4(C)[C@@]3(F)[C@@H](O)C[C@@]21C` please
output: n

input: And for `c1ccc(CNc2nc(NCc3ccccc3)c3ccccc3n2)cc1` ?
output: y

input: Quick one: `CCS(=O)(=O)Nc1ccc2[nH]c(O)c(C(=Nc3ccc(CN4CCCCC4)cc3)c3ccccc3)c2c1`
output: y
